Numbers sourced from patent US20240116985A1.

Assignment: determine reported NanoBRET Abs IC50 for the given binders.
# TEST_SYSTEM: T1, B-cat-Halo (NanoBRET construct expressed in HEK293 cells) (UniProt P35222 1-781, HaloTag NanoBRET 618 Ligand bound in the assay)
# T1 sequence (looked up): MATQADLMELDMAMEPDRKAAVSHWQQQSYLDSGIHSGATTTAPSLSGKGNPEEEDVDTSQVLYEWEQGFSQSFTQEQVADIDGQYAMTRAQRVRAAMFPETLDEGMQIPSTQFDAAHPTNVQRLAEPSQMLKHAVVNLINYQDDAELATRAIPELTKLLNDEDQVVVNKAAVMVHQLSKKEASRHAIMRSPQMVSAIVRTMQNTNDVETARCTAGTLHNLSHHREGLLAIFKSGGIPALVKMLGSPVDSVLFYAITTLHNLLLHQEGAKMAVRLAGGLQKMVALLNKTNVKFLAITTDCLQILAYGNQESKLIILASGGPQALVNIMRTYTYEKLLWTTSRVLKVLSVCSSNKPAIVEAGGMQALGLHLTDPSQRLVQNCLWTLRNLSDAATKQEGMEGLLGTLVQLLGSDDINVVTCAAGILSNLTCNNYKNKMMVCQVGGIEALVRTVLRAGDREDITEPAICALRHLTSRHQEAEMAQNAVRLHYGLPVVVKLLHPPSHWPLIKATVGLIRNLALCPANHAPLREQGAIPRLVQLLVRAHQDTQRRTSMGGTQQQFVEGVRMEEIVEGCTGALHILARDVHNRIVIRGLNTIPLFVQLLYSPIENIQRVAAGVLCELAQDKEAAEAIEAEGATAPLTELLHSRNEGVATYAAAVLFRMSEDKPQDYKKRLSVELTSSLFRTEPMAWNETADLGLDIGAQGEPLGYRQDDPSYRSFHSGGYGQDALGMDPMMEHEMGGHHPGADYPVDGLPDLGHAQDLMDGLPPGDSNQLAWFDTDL
# ASSAY_INFO: cell-based or functional assay
Starred links: 1 amine or outer side, 2 acyl side, 3 side chain; linkers in the order of their positions; H or OH if unused. Positions of bridges follow the written chain, without caps; N, C: chain ends. Non-standard residues stand in square brackets, D forms with d. Primed or numbered codes have the meaning given here. PyrS2(3) = (S)-3-amino-1-((pent-4-en-1-yloxy)carbonyl)pyrrolidine-3-carboxylic acid, stapling residue, C=CCCCOC(=O)N1CC[C@@](N[*:1])(C(=O)[*:2])C1; B5(4) = 2,2-bis(4-pentenyl)glycine = 2-amino-2-(pent-4-en-1-yl)hept-6-enoic acid (stitching residue), C=CCCCC(CCCC=C)(N[*:1])C(=O)[*:2]; TfeGA = (S)-2-amino-3-((carboxymethyl)(2,2,2-trifluoroethyl)amino)propanoic acid, O=C([C@H](CN(CC(=O)[*:3])CC(F)(F)F)N[*:1])[*:2]; PyrS3 = (S)-3-amino-1-((hex-5-en-1-yloxy)carbonyl)pyrrolidine-3-carboxylic acid, C=CCCCCOC(=O)N1CC[C@@](N[*:1])(C(=O)[*:2])C1; B5(7) = 2-amino-2-(pent-4-en-1-yl)hept-6-enoic acid, two olefinic side chains, C=CCCCC(CCCC=C)(N[*:1])C(=O)[*:2]; B5″ = 2,2-bis(4-pentenyl)glycine, stitching residue, C=CCCCC(CCCC=C)(N[*:1])C(=O)[*:2]; Bta = N[C@@H](Cc1csc2ccccc12)C(=O)O; αAllylPro = C=CC[C@@]1(C(=O)O)CCCN1; tBuAla = CC(C)(C)C[C@H](N)C(=O)O; 3Thi = N[C@@H](Cc1ccsc1)C(=O)O; S8 = C=CCCCCCC[C@](C)(N)C(=O)O
Give bare numbers, in µM.

Sample answers from the record:
## Task Indicate its recorded NanoBRET Abs IC50; the binder in question is Ac-[αAllylPro]D[tBuAla][B5(7)]DDAAFN[PyrS3][3Thi][Bta]Q-NH2 (staple 1-4, 4-11) [I-767]
## Result 37.2

## Task Indicate its recorded NanoBRET Abs IC50; the binder in question is Ac-[αAllylPro]DL[B5(4)]DEAAFN[S8]F[Bta]N-NH2 (staple 1-4, 4-11; also: olefin E/Z not assigned, later-eluting staple isomer, Stapled peptide; also called Ac-PL3-Asp-Leu-B5-Asp-Glu-Ala-Ala-Phe-Asn-S8-Phe-BztA-Asn-NH2) [I-753]
## Result 10

## Task Indicate its recorded NanoBRET Abs IC50; the binder in question is Ac-[αAllylPro]DL[B5(4)]DEAAFN[S8]F[Bta]S-NH2 (staple 1-4, 4-11; also: olefin E/Z not assigned, later-eluting staple isomer, Stapled peptide; shares its description with I-750, later eluting HPLC peak (staple isomer composition); also called Ac-PL3-Asp-Leu-B5-Asp-Glu-Ala-Ala-Phe-Asn-S8-Phe-BztA-Ser-NH2) [I-751]
## Result 7.1

***
## Task Indicate its recorded NanoBRET Abs IC50; the binder in question is Ac-[αAllylPro]D[tBuAla][B5″]D[TfeGA]AAFN[PyrS2(3)][3Thi][Bta]Q-NH2 (staple 1-4, 4-11) [I-762]
## Result 14
